Measurement target: PIP4K2A (Homo sapiens, UniProt P48426)
Measurement notes: ADP-glo kinase assay PIP4K 2A (Table 3)
Type: biochemical
Set-up: made in house; host or cells: E. coli
Settings: compounds listed under IC50 bins
Please go through the items and note down their IC50.

Using the record for O=C1CCCN1c1ccc(-c2ccc(Nc3cnc4c(c3)N3C(=O)OC[C@H]3CO4)nc2)cc1F [Example 295] , state its measured IC50.
1 to 10 nM

Using the record for O=C1CCCN1c1ccc(-c2ccc(Nc3cncc(N4CCN(Cc5cnco5)C4=O)c3)nc2)cc1 [Example 166] , state its measured IC50.
10 to 100 nM

Using the record for O=C1C[C@@H](O)CN1c1ccc(-c2ccc(Nc3cnc4c(c3)N3C(=O)CC[C@H]3CO4)nc2)cc1 [Example 236] , state its measured IC50.
100 to 1000 nM

Using the record for CN(C)C/C=C/C(=O)Nc1ccc(C(=O)Nc2cncc(Nc3ccc(-c4ccc(N5CCCC5=O)cc4)cn3)c2)cc1 [Example 167] , state its measured IC50.
10 to 100 nM

Using the record for C[C@@]1(O)C[C@H]2COc3ncc(Nc4ccc(-c5ccc(N6CCCC6=O)c(F)c5)cn4)cc3N2C1=O [Example 270] , state its measured IC50.
10 to 100 nM

Using the record for CN(C)C(=O)c1ccc(-c2ccc(Nc3cnc4c(c3)CCCO4)nc2)cc1 [Example 58] , state its measured IC50.
100 to 1000 nM

Using the record for CN(C)C(=O)c1ccc(-c2ccc(Nc3cncc(NC(=O)C4CCOCC4)c3)nc2)cc1 [Example 126] , state its measured IC50.
100 to 1000 nM

Using the record for CN(C)C(=O)c1ccc(-c2ccc(Nc3cncc(NC(=O)c4ccc5cc[nH]c5c4)c3)nc2)cc1 [Example 135] , state its measured IC50.
10 to 100 nM

Using the record for CN(C)C/C=C/C(=O)N1CCC(C(=O)Nc2cccc(CCC(=O)Nc3cncc(Nc4ccc(-c5ccc(C(=O)N(C)C)cc5)cn4)c3)c2)CC1 [Example 110] , state its measured IC50.
100 to 1000 nM

Using the record for CN(C)C(=O)c1ccc(-c2ccc(Nc3cnc4c(c3)N(C(=O)CO)CCO4)nc2)cc1 [Example 89] , state its measured IC50.
10 to 100 nM

Using the record for CN(C)CCCC(=O)Nc1cccc(CCC(=O)Nc2cncc(Nc3ccc(-c4ccc(N5CCCC5=O)cc4)cn3)c2)c1 [Example 170] , state its measured IC50.
10 to 100 nM

Using the record for C[C@@H](c1ccccc1)N1CCN(c2cncc(Nc3ccc(-c4ccc(C(=O)N(C)C)cc4)cn3)c2)C1=O [Example 80] , state its measured IC50.
10 to 100 nM

Using the record for CN(C)C(=O)c1ccc(-c2ccc(Nc3cnc4c(c3)N(C(=O)OC(C)(C)C)CCO4)nc2)cc1 [Example 45] , state its measured IC50.
100 to 1000 nM

Using the record for CN(C)C/C=C/C(=O)Nc1cccc(CCC(=O)Nc2cncc(Nc3ccc(-c4ccc(N5CCCC5=O)cc4)cn3)c2)c1 [Example 169] , state its measured IC50.
10 to 100 nM

Using the record for CN(C)C(=O)c1ccc(-c2ccc(Nc3cncc(N4CCN(Cc5ccc(NC(=O)CCc6cccc(N)c6)cc5)C4=O)c3)nc2)cc1 [Example 230] , state its measured IC50.
1 to 10 nM

Using the record for CC(C)c1cc(Nc2cnc3c(c2)N2C(=O)CC[C@H]2CO3)ncc1-c1ccc(N2CCCC2=O)cc1 [Example 177] , state its measured IC50.
1 to 10 nM

Using the record for COCc1cc(Nc2cnc3c(c2)N2C(=O)C4(CC4)C[C@H]2CO3)ncc1-c1ccc(N2CCCC2=O)cc1 [Example 207] , state its measured IC50.
1 to 10 nM

Using the record for CC1C[C@H]2COc3ncc(Nc4ccc(-c5ccc(N6CCCC6=O)cc5)cn4)cc3N2C1=O (stereo partly drawn) [Example 259] , state its measured IC50.
10 to 100 nM

Using the record for CN(Cc1cncs1)C(=O)c1ccc(-c2ccc(Nc3cccnc3)nc2)cc1 [Example 71] , state its measured IC50.
> 1000 nM

Using the record for CN(C)C/C=C/C(=O)Nc1cccc(C(=O)NCc2ccc(Nc3ccc(-c4ccc(C(=O)N(C)C)cc4)cn3)cn2)c1 [Example 106] , state its measured IC50.
100 to 1000 nM

Using the record for O=C1CCCN1c1ccc(-c2ccc(Nc3cncc(N4CCN(Cc5cocn5)C4=O)c3)nc2)cc1 [Example 165] , state its measured IC50.
10 to 100 nM

----------
Please go through the items and note down their IC50.
Measurement target: PIP4K2A (Homo sapiens, UniProt P48426)
Measurement notes: Kinase Assay PIP4K2 A (Table 2)
Type: biochemical
Set-up: 4 nM PIP4K2A (full length protein, SignalChem); purchased SignalChem
Settings: compounds listed under IC50 bins

Using the record for CN(C)C(=O)c1ccc(-c2ccc(Nc3cncc(N4CCCC4=O)c3)nc2)c(F)c1 , state its measured IC50.
0.01 to 0.1 µM

Using the record for C[C@H](c1ccccc1)N1CCN(c2cncc(Nc3ccc(-c4ccc(C(=O)N(C)C)cc4)cn3)c2)C1=O , state its measured IC50.
≤ 0.001 µM

Using the record for O=C1CCCN1c1ccc(-c2ccc(Nc3cnc4c(c3)N3C(=O)CC[C@H]3CO4)nc2)cc1F , state its measured IC50.
0.001 to 0.01 µM

Using the record for O=C1CCCN1c1ccc(-c2ccc(Nc3cnc4c(c3)N(S(=O)(=O)C3CC3)CCO4)nc2)cc1 , state its measured IC50.
0.01 to 0.1 µM

----------
Measurement target: PIP4K2A (Homo sapiens, UniProt P48426)
Measurement notes: Kinase Assay PIP4K2 A (Table 2)
Assay type: biochemical
Parameters: 4 nM PIP4K2A (full length protein, SignalChem); purchased SignalChem
Settings: compounds listed under IC50 bins
Procedure: Dilution series of the compounds were prepared in DMSO at 100 times the final assay concentration (n1=n0/3 in 10 points). […] Then 3 μL of a solution containing 60 μM ATP (Promega) in assay buffer was added to the wells containing compound and enzyme and mixing was performed by pipetting several times. […] The reaction was incubated at room temperature for 40 minutes before the luminescence was measured in a in a Victor 3V 1420 multilabel counter (Perkin Elmer). […]
Please go through the items and note down their IC50.

Using the record for CN(C)C(=O)c1ccc(-c2ccc(Nc3cnc4c(c3)CCCO4)nc2)cc1 [Example 58] , state its measured IC50.
10 to 100 nM

Using the record for CN(C)C(=O)c1ccc(-c2cnc(Nc3cccnc3)nc2)cc1 [Example 264] , state its measured IC50.
100 to 1000 nM

Using the record for CN(C)C(=O)c1ccc(-c2ccc(Nc3cncc(NC(=O)c4cccc(NC(=O)OC(C)(C)C)c4)c3)nc2)cc1 [Example 98] , state its measured IC50.
10 to 100 nM

Using the record for O=C1CCCN1c1ccc(-c2ccc(Nc3cccnc3)nc2)cc1 [Example 82] , state its measured IC50.
100 to 1000 nM

Using the record for CN(C)C/C=C/C(=O)Nc1cccc(CCC(=O)Nc2ccc(CN3CCN(c4cncc(Nc5ccc(-c6ccc(C(=O)N(C)C)cc6)cn5)c4)C3=O)cc2)c1 [Example 231] , state its measured IC50.
1 to 10 nM

Using the record for O=C1CCCN1c1ccc(-c2cnc(Nc3cncc(N4CCN(Cc5cscn5)C4=O)c3)cn2)cc1 [Example 164] , state its measured IC50.
1 to 10 nM

----------
Measurement target: PIP4K2A (Homo sapiens, UniProt P48426)
Sequence (P48426 1-406): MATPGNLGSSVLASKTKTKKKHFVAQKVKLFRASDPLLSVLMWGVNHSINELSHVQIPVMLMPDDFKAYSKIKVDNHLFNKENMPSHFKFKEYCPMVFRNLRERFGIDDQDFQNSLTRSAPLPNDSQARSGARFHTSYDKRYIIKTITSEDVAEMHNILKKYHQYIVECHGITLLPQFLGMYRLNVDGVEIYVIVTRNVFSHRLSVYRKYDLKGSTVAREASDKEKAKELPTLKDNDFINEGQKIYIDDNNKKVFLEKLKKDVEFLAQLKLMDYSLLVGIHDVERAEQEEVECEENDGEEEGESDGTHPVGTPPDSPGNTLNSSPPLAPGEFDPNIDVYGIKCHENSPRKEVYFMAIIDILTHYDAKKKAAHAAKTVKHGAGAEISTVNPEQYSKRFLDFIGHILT
Measurement notes: ADP-glo kinase assay PIP4K 2A (Table 3)
Assay type: biochemical
Design: made in house; host or cells: E. coli
Settings: compounds listed under IC50 bins
Recorded metric: IC50

Using the record for COc1cc(Nc2cnc3c(c2)N2C(=O)CC[C@H]2CO3)ncc1-c1ccc(N2CCCC2=O)c(F)c1 , state its measured IC50.
1 to 10 nM

Using the record for CN(C)C(=O)c1ccc(-c2ccc(Nc3cncc(NC(=O)c4ccc5c(c4)B(O)OC5)c3)nc2)cc1 , state its measured IC50.
10 to 100 nM

Using the record for CN(C)C(=O)c1ccc(-c2ccc(Nc3cncc(N4CCN(Cc5ccccc5)C4=O)c3)nc2)cc1 , state its measured IC50.
1 to 10 nM

Using the record for COc1cc(Nc2cnc3c(c2)N2C(=O)C4(CC4)C[C@H]2CO3)ncc1-c1ccc(N2CCCC2=O)cc1 , state its measured IC50.
≤ 1 nM

Using the record for CN(C)C(=O)c1ccc(-c2ccc(Nc3cncc(NC(=O)c4ccccc4)c3)nc2)cc1 , state its measured IC50.
10 to 100 nM

Using the record for CN(C)C(=O)c1ccc(-c2ccc(Nc3cncc(N4CCN(Cc5cccc(NC(=O)CCc6cccc(N)c6)c5)C4=O)c3)nc2)cc1 , state its measured IC50.
1 to 10 nM

Using the record for O=C(Nc1cncc(Nc2ccc(-c3ccc(N4CCCC4=O)cc3)cn2)c1)C1CC1c1ccccc1 (stereo not shown) , state its measured IC50.
1 to 10 nM

Using the record for COc1ncc(Nc2ccc(-c3ccc(N4CCCC4=O)cc3)cn2)cc1NC(C)=O , state its measured IC50.
100 to 1000 nM

Using the record for Cc1cc(Nc2cnc3c(c2)N2C(=O)CC[C@H]2CO3)ncc1-c1ccc(N2CCCC2=O)cc1 , state its measured IC50.
1 to 10 nM

Using the record for CN(C)C(=O)c1ccc(-c2ccc(Nc3ccc(CNC(=O)c4cccc(NC(=O)OC(C)(C)C)c4)nc3)nc2)cc1 , state its measured IC50.
> 1000 nM

Using the record for O=C1CCCN1c1ccc(-c2cnc(Nc3cnc4c(c3)N3C(=O)CC[C@H]3CO4)cc2C2CC2)cc1 , state its measured IC50.
1 to 10 nM

Using the record for O=C1CCCN1c1ccc(-c2ccc(Nc3cnc4c(c3)N3C(=O)CC[C@H]3CO4)nc2)c(F)c1 , state its measured IC50.
10 to 100 nM

Using the record for CN(C)C(=O)c1ccc(-c2ccc(Nc3cncc(NC(=O)C4CC4c4ccccc4)c3)nc2)cc1 (stereo not shown) , state its measured IC50.
1 to 10 nM

Using the record for CC(C)C(=O)N1CCOc2ncc(Nc3ccc(-c4ccc(N5CCCC5=O)cc4)cn3)cc21 , state its measured IC50.
10 to 100 nM

Using the record for CN(C)C/C=C/C(=O)Nc1cccc(C(=O)Nc2cncc(Nc3ccc(-c4ccc(C(=O)N(C)C)cc4)cn3)c2)c1 , state its measured IC50.
10 to 100 nM

Using the record for COc1nc(Nc2cnc3c(c2)N2C(=O)CC[C@H]2CO3)ncc1-c1ccc(N2CCCC2=O)cc1 , state its measured IC50.
≤ 1 nM

Using the record for CN(C)C(=O)c1ccc(-c2ccc(Nc3cncc(NC(=O)c4ccc5c(c4)COB5O)c3)nc2)cc1 , state its measured IC50.
10 to 100 nM

Using the record for CN(C)C(=O)c1ccc(-c2ccc(Nc3cncc(NC(=O)c4ccnc(N)c4)c3)nc2)cc1 , state its measured IC50.
10 to 100 nM

Using the record for COc1cc(Nc2cnc3c(c2)N2C(=O)CC[C@H]2CO3)ncc1-c1ccc(N2CCCC2=O)cc1 , state its measured IC50.
1 to 10 nM

Using the record for COc1cc(C(=O)Nc2cncc(Nc3ccc(-c4ccc(N5CCCC5=O)cc4)cn3)c2)c2[nH]cnc2c1 , state its measured IC50.
10 to 100 nM

Using the record for Nc1nc(Nc2cnc3c(c2)N2C(=O)CC[C@H]2CO3)ncc1-c1ccc(N2CCCC2=O)cc1 , state its measured IC50.
1 to 10 nM

Using the record for CN(C)C(=O)c1ccc(-c2ccc(Nc3cnc4c(c3)N(C(=O)C(C)(C)CO)CCO4)nc2)cc1 , state its measured IC50.
10 to 100 nM
